- target-or-system: pooled human IgG (human IgG1,2,3 and 4)
measurement-kind: Enzyme Activity Endpoint Assay (purified): scIgG (ng/µL)

{"protein": "PRT-327 (protein) MTITSVWTKGVTPPTPEDFRENNEDVLHAPYVANQGWYDITKTFDGKDNLLCGAATAGNMLHWWFDQNKEEIERYLKKHPEKQKIIFNNQELFDVKAAIDTKDSQTNSKLFDYFRDKAFPNLSARQLGVMPDLVLDMFINGYYLNLGKTQSTDVNRPYQDKDKRGGIFDAVFTRGDQTTLLTARHDLKNKGLNEISDLIKQELTEGKALALSHTYANVRINHVINLWGADFDAEGELIAIYVTDSDANPSIGMKKYFVGRNANGKVAISAKKIEGDNIGAQVLGLFTLSTGQDIWQKLS", "experimental-result": 0}
